Catalogue of GDH-coupled assay α (ratio Ki’/Ki) values
- TARGET_ENTITY: human TG2 (Homo sapiens)
- Sequence (P21980 1-687): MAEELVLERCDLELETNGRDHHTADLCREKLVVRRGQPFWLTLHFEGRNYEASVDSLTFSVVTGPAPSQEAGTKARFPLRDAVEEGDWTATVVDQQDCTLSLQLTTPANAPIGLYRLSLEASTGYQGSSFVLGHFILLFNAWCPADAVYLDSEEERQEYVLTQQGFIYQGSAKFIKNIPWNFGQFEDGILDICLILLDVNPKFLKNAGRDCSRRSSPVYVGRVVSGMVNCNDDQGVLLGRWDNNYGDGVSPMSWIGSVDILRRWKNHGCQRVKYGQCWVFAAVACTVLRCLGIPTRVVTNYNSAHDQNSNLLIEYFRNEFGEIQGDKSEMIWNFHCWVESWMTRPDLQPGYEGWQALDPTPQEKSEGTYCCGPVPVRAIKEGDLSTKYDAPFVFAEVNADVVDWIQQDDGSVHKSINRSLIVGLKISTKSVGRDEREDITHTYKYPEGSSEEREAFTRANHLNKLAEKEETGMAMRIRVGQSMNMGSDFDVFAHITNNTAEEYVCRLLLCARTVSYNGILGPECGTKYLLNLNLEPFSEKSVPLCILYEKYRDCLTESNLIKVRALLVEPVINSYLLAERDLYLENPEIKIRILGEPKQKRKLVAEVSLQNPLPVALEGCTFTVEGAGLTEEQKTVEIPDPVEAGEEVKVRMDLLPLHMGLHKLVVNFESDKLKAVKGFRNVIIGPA
- ASSAY_SUMMARY: GDH-coupled deamidation assay with Cbz-Gln-Gly
- Assay type: biochemical
- REPORTED_CONDITIONS: Table 4; [TG2] = 0.5 µM, mixed inhibition model

Q: Endpoint output: GDH-coupled assay α (ratio Ki’/Ki) of CC(=O)/C=C1/C(=O)Nc2cc(F)ccc21 [Compound 12] . Value?
A: > 100

Q: Endpoint output: GDH-coupled assay α (ratio Ki’/Ki) of CN1C(=O)/C(=C/C(=O)c2cccnc2)c2c(Cl)cccc21 [Compound 28] . Value?
A: > 100

Q: Endpoint output: GDH-coupled assay α (ratio Ki’/Ki) of O=C1Nc2cccc(Br)c2/C1=C\C(=O)c1cccnc1 [Compound 41] . Value?
A: > 100

Q: Endpoint output: GDH-coupled assay α (ratio Ki’/Ki) of CC(=O)/C=C1/C(=O)Nc2ccc(Cl)cc21 [Compound 11] . Value?
A: > 100

Q: Endpoint output: GDH-coupled assay α (ratio Ki’/Ki) of O=C1Nc2cc(Cl)ccc2/C1=C\C(=O)c1cccnc1 [Compound 46] . Value?
A: 0.86

Q: Endpoint output: GDH-coupled assay α (ratio Ki’/Ki) of O=C1Nc2cccc(Cl)c2/C1=C\C(=O)c1cccnc1 [Compound 16] . Value?
A: > 100

Q: Endpoint output: GDH-coupled assay α (ratio Ki’/Ki) of O=C1Nc2cccc(Cl)c2/C1=C\C(=O)c1ccccc1 [Compound 20] . Value?
A: > 100

Q: Endpoint output: GDH-coupled assay α (ratio Ki’/Ki) of CC(=O)/C=C1/C(=O)Nc2cccc(Cl)c21 [Compound 10] . Value?
A: > 100

Q: Endpoint output: GDH-coupled assay α (ratio Ki’/Ki) of O=C1Nc2ccccc2/C1=C\C(=O)c1cccnc1 [Compound 40] . Value?
A: > 100

Q: Endpoint output: GDH-coupled assay α (ratio Ki’/Ki) of O=C1Nc2ccc(Br)cc2/C1=C\C(=O)c1cccnc1 [Compound 43] . Value?
A: > 100

Q: Endpoint output: GDH-coupled assay α (ratio Ki’/Ki) of O=C(/C=C1/C(=O)N(Cc2ccccc2)c2cccc(Cl)c21)c1cccnc1 [Compound 33] . Value?
A: 1.8
